The reported numbers originate from patent US20240277852A1.

Heads up, these compounds all have pKd values measured for PIP4K2C (Homo sapiens (Human)).
Numbers only, as −log10 of the molar value.

Recall and state the measured pKd for Cc1ccc(NS(C)(=O)=O)cc1Nc1ncc(Cl)c(-c2cccc(-c3ccccc3)c2)n1 [Compound 7] .
6.82

Determine from records and report pKd for O=C(Nc1cncc(Nc2ncc(Cl)c(-c3cccc(-c4cccnc4)c3)n2)c1)c1ccccc1 [Compound 14]
7.42

Supply pKd value. Item: CC(=O)Nc1ccc(C)c(Nc2ncc(Cl)c(-c3cccc(-c4ccccc4)c3)n2)c1 [Compound 9]
5.85

State its pKd: O=C(Nc1cccc(Nc2ncc(Cl)c(-c3cccc(-c4ccccc4)c3)n2)c1)c1ccccc1 [Compound 12]
6.85

Give one value of pKd per listed compound.
1. CC(=O)Nc1ccc(Nc2ncc(Cl)c(-c3cccc(-c4ccccc4)c3)n2)c(C)c1 [Compound 8]
2. CC(=O)N(C)S(=O)(=O)c1ccc(Nc2ncc(Cl)c(-c3cccc(-c4ccccc4)c3)n2)c(C)c1 [Compound 3]
3. Cc1cc(C(N)=O)ccc1Nc1ncc(Cl)c(-c2cccc(-c3ccccc3)c2)n1 [Compound 5]
4. CC(=O)N(CC#N)S(=O)(=O)c1ccc(Nc2ncc(Cl)c(-c3cccc(-c4ccccc4)c3)n2)c(C)c1 [Compound 2]
5. O=C1CC[C@H]2COc3ncc(Nc4ncc(Cl)c(-c5cccc(-c6ccccc6)c5)n4)cc3N12 [Compound 15]

[6.57, 7.54, 7.34, 7.25, 9.35]

Would you mind giving pKd for every compound in the list below?
1. O=C(COc1cccc2c1C(=O)N(C1CCC(=O)NC1=O)C2=O)NCCOCCOCCNS(=O)(=O)c1ccc(Nc2ncc(Cl)c(-c3cccc(-c4ccccc4)c3)n2)cc1 (centres unmarked) [Compound 36]
2. Cc1ncsc1-c1ccc(CNC(=O)[C@@H]2C[C@@H](O)CN2C(=O)[C@@H](NC(=O)C2(F)CC2)C(C)(C)C)c(OCCCCCCC(=O)N2CCC3(CC2)CCN(c2cncc(Nc4ncc(Cl)c(-c5cccc(-c6ccccc6)c5)n4)c2)C3=O)c1 [Compound 56]

1: 6.34; 2: 6.21
